# Percent Inhibition annotations
TESTED SYSTEM: recombinant human SAE enzyme (Homo sapiens (Human), UniProt Q9UBT2)
Sequence (Q9UBT2 whole entry): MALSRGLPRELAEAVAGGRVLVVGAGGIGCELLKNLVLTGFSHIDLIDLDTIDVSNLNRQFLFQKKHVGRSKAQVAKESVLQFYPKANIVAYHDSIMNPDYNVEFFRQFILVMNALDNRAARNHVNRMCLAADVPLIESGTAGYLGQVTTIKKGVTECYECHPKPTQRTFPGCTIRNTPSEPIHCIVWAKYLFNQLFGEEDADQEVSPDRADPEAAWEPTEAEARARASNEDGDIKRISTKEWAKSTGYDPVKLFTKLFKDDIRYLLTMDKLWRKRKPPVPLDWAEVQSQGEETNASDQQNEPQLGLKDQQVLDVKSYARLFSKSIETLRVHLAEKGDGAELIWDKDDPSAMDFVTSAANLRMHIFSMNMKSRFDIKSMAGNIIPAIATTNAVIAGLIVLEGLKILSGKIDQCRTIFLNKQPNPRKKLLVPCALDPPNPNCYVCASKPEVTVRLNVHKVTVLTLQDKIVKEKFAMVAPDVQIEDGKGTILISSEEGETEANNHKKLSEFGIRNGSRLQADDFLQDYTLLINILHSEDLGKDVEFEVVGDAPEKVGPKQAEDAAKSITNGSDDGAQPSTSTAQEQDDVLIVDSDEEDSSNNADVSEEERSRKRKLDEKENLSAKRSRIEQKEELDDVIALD
Sequence (Q9UBE0 whole entry partner): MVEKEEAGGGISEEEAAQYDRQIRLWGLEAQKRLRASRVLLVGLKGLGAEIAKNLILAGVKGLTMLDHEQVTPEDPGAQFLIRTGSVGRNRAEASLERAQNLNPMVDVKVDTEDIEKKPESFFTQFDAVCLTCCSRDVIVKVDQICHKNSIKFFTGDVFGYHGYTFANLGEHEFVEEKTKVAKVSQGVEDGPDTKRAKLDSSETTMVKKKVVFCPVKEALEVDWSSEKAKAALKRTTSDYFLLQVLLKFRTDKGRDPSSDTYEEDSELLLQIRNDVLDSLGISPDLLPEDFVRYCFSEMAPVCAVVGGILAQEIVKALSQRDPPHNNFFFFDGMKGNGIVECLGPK
MEASUREMENT DESCRIPTION: SAE HTRF enzyme assay
Assay type: biochemical
CONDITIONS: Concentration 0.111 μM

- MOLECULE: "C[C@](O)(c1csc(C(=O)c2cncnc2N[C@@H]2C[C@H](COS(N)(=O)=O)[C@@H](O)[C@H]2O)c1)c1cccc(Br)n1 (mixture of isomers) [I-1]"
  TESTED SYSTEM: "recombinant human SAE enzyme (Homo sapiens (Human), UniProt Q9UBT2)"
  Percent Inhibition: 99
- MOLECULE: "Cc1sc(C(=O)c2cncnc2N[C@@H]2C[C@H](COS(N)(=O)=O)[C@@H](O)C2)cc1[C@@H]1OCCc2ccc(C(F)(F)F)cc21 (mixture of isomers) [I-258]"
  TESTED SYSTEM: "recombinant human SAE enzyme (Homo sapiens (Human), UniProt Q9UBT2)"
  Percent Inhibition: 100
- MOLECULE: "Cc1sc(C(=O)c2cncnc2N[C@@H]2C[C@H](COS(N)(=O)=O)[C@@H](O)C2)cc1[C@@H]1OCCc2ccsc21 (mixture of isomers) [I-269]"
  TESTED SYSTEM: "recombinant human SAE enzyme (Homo sapiens (Human), UniProt Q9UBT2)"
  Percent Inhibition: 99
- MOLECULE: "C[C@@H](c1cccc(Cl)c1)c1csc(C(=O)c2cncnc2N[C@@H]2C[C@H](COS(N)(=O)=O)[C@@H](O)C2)c1 (mixture of isomers)"
  TESTED SYSTEM: "recombinant human SAE enzyme (Homo sapiens (Human), UniProt Q9UBT2)"
  Percent Inhibition: 93
- MOLECULE: "NS(=O)(=O)OC[C@H]1C[C@@H](Nc2ncncc2C(=O)c2cc([C@@H]3NCCc4ccc(Cl)cc43)c(Cl)s2)[C@H](O)[C@@H]1O (single isomer, unassigned) [I-249b]"
  TESTED SYSTEM: "recombinant human SAE enzyme (Homo sapiens (Human), UniProt Q9UBT2)"
  Percent Inhibition: 92

====

TESTED SYSTEM: recombinant human SAE enzyme (Homo sapiens (Human))
MEASUREMENT DESCRIPTION: SAE HTRF enzyme assay
Type: biochemical
CONDITIONS: SAE inhibition at compound concentration 0.111 μM

- MOLECULE: "Cc1sc(C(=O)c2cncnc2N[C@@H]2C[C@H](COS(N)(=O)=O)[C@@H](O)C2)nc1C1OCCc2ccc(Cl)cc21 (single isomer, unassigned) [I-300a]"
  Percent Inhibition / %: 26
- MOLECULE: "NS(=O)(=O)OC[C@H]1C[C@@H](Nc2ncncc2C(=O)c2cc([C@@H]3OCC(F)(F)c4ccccc43)cs2)C[C@@H]1O (mixture of isomers) [I-293]"
  Percent Inhibition / %: 98
- MOLECULE: "C[C@@]1(c2csc(C(=O)c3cncnc3N[C@@H]3C[C@H](COS(N)(=O)=O)[C@@H](O)C3)c2)NCCc2ccc(Cl)cc21 (mixture of isomers)"
  Percent Inhibition / %: 94

====

Measured IC50, listed per entry for reference.
TESTED SYSTEM: recombinant human SAE enzyme (Homo sapiens (Human), UniProt Q9UBT2)
MEASUREMENT DESCRIPTION: SAE HTRF enzyme assay
Assay type: biochemical
CONDITIONS: SAE inhibition; class symbols, legend in nM
MEASURED ENDPOINT: IC50

- MOLECULE: "Cc1nc2n(c1C)CCO[C@@H]2c1cc(C(=O)c2cncnc2N[C@@H]2C[C@H](COS(N)(=O)=O)[C@@H](O)C2)sc1C (mixture of isomers) [I-356]"
  MEASURED ENDPOINT: "IC50"
  RECORDED VALUE: "< 10 nM"
- MOLECULE: "Cc1nc2c(s1)[C@H](c1cc(C(=O)c3cncnc3N[C@@H]3C[C@H](COS(N)(=O)=O)[C@@H](O)C3)sc1C)OCC2 (single isomer, unassigned) [I-305b]"
  MEASURED ENDPOINT: "IC50"
  RECORDED VALUE: "< 10 nM"
- MOLECULE: "Cc1cc2n(n1)CCO[C@H]2c1csc(C(=O)c2cncnc2N[C@@H]2C[C@H](COS(N)(=O)=O)[C@@H](O)C2)c1 (mixture of isomers)"
  MEASURED ENDPOINT: "IC50"
  RECORDED VALUE: "100 to 1000 nM"
- MOLECULE: "C[C@@]1(c2csc(C(=O)c3cncnc3N[C@@H]3C[C@H](COS(N)(=O)=O)[C@@H](O)C3)c2)OCCc2ccc(Cl)cc21 (mixture of isomers)"
  MEASURED ENDPOINT: "IC50"
  RECORDED VALUE: "< 10 nM"
- MOLECULE: "CCc1ccc2c(c1)[C@H](c1cc(C(=O)c3cncnc3N[C@@H]3C[C@H](COS(N)(=O)=O)[C@@H](O)C3)sc1C)OCC2 (mixture of isomers)"
  MEASURED ENDPOINT: "IC50"
  RECORDED VALUE: "< 10 nM"
- MOLECULE: "NS(=O)(=O)OC[C@H]1C[C@@H](Nc2ncncc2C(=O)c2cc([C@@H]3OCCc4ccc(Cl)cc43)c(Cl)s2)C[C@@H]1O (single isomer, unassigned) [I-282b]"
  MEASURED ENDPOINT: "IC50"
  RECORDED VALUE: "< 10 nM"
- MOLECULE: "Cc1sc(C(=O)c2cncnc2N[C@@H]2C[C@H](COS(N)(=O)=O)[C@@H](O)C2)cc1[C@@H]1OCCc2ccc(C(F)(F)F)nc21.Cc1sc(C(=O)c2cncnc2N[C@@H]2C[C@H](COS(N)(=O)=O)[C@@H](O)C2)cc1[C@H]1OCCc2ccc(C(F)(F)F)nc21 (mixture of isomers)"
  MEASURED ENDPOINT: "IC50"
  RECORDED VALUE: "< 10 nM"
- MOLECULE: "Cc1sc(C(=O)c2cncnc2N[C@@H]2C[C@H](COS(N)(=O)=O)[C@@H](O)C2)cc1[C@@H]1OCCc2oc(Cl)cc21 (mixture of isomers)"
  MEASURED ENDPOINT: "IC50"
  RECORDED VALUE: "< 10 nM"
- MOLECULE: "CN1CCc2ccc(Cl)cc2[C@@H]1c1cc(C(=O)c2cncnc2N[C@@H]2C[C@H](COS(N)(=O)=O)[C@@H](O)C2)sc1Cl (single isomer, unassigned) [I-311b]"
  MEASURED ENDPOINT: "IC50"
  RECORDED VALUE: "< 10 nM"
- MOLECULE: "NS(=O)(=O)OC[C@H]1C[C@@H](Nc2ncncc2C(=O)c2cc([C@@H]3OCCc4ccc(F)cc43)c(Cl)s2)C[C@@H]1O (single isomer, unassigned) [I-294a]"
  MEASURED ENDPOINT: "IC50"
  RECORDED VALUE: "10 to 100 nM"
